Just for reference, patent US11814376B2 is where these values come from.

test system: AD38 cells; experiment: Viability of AD38 cells (Promega CellTiter-Glo); type: cell-based; details: 10 μM compound, 6 days, CellTiter-Glo luminescence normalized to DMSO control (100%)
assay_endpoint: AD38 Viability Normalized Result (cmpd/DMSO %) at 10 μM

chemical_smiles=O=C(NCc1cnc(-c2ccc(O)cn2)s1)c1ccc2c(c1)NC(=O)c1ccccc1S2(=O)=O subject_of_test="AD38 cells" endpoint_value=104
chemical_smiles=O=C(NCc1cnc(-c2cc[nH]n2)s1)c1ccc2c(c1)NC(=O)c1ccccc1S2(=O)=O subject_of_test="AD38 cells" endpoint_value=92
chemical_smiles=CN1CCN(c2ncc(CNC(=O)c3ccc4c(c3)NC(=O)c3ccccc3S4(=O)=O)s2)CC1 subject_of_test="AD38 cells" endpoint_value=95
chemical_smiles=CCN(CC)CCCCc1ccc(-c2ncc(CNC(=O)c3ccc4c(c3)NC(=O)c3ccccc3S4(=O)=O)s2)cc1 subject_of_test="AD38 cells" endpoint_value=104

* * *

tested on: AD38 cells; experiment: Viability of AD38 cells (Promega CellTiter-Glo); assay type: cell-based; details: 10 μM compound, 6 days, CellTiter-Glo luminescence normalized to DMSO control (100%)
assay_endpoint: AD38 Viability Normalized Result (cmpd/DMSO %) at 10 μM

compound="O=C(NCc1cnc(-c2ccc(OCCCN3CCC3)cc2)s1)c1ccc2c(c1)NC(=O)c1ccccc1S2(=O)=O [compound 11105]" endpoint_value=95
compound=O=C(NCc1cnc(-c2ccc(OCCCN3CCCCC3)cc2)s1)c1ccc2c(c1)NC(=O)c1ccccc1O2 endpoint_value=104
compound=O=C(NCc1cnc(Cc2ccc(O)cc2)s1)c1ccc2c(c1)NC(=O)c1ccccc1O2 endpoint_value=94
compound=O=C(NCc1cnc(N2C[C@H](O)CC[C@@H](O)C2)s1)c1ccc2c(c1)NC(=O)c1ccccc1S2(=O)=O endpoint_value=100
compound=CC(C)(C)OC(=O)NC1CCN(Cc2ncc(CNC(=O)c3ccc4c(c3)NC(=O)c3ccccc3S4(=O)=O)s2)CC1 endpoint_value=107
compound=CC(C)(C)OC(=O)N1CC(COc2ccc(-c3ncc(CNC(=O)c4ccc5c(c4)NC(=O)c4ccccc4S5(=O)=O)s3)cc2)C1 endpoint_value=107
compound=Cc1cc(-c2ncc(CNC(=O)c3ccc4c(c3)NC(=O)c3ccccc3O4)s2)cc(C)c1O endpoint_value=93
compound=O=C(NCc1cnc(-n2cc(C(F)(F)F)cn2)s1)c1ccc2c(c1)NC(=O)c1ccccc1S2(=O)=O endpoint_value=92
compound=N#Cc1ccc(-c2ncc(CNC(=O)c3ccc4c(c3)NC(=O)c3ccccc3S4(=O)=O)s2)nc1 endpoint_value=108
compound=CN1CCC[C@@H]1COc1ccc(-c2ncc(CNC(=O)c3ccc4c(c3)NC(=O)c3ccccc3S4(=O)=O)s2)cc1 endpoint_value=88
compound=CNC(=O)c1ccc(-c2ncc(CNC(=O)c3ccc4c(c3)NC(=O)c3ccccc3S4(=O)=O)s2)cc1 endpoint_value=98
compound=O=C(NCc1cnc(-c2ccc(SCCCN3CCOCC3)cc2)s1)c1ccc2c(c1)NC(=O)c1ccccc1S2(=O)=O endpoint_value=104
compound=CCN1c2ccc(C(=O)NCc3cnc(-c4ccc(O)cc4)s3)cc2NC(=O)c2ccccc21 endpoint_value=18
